Measured values drawn from paper PMC6706627 for this set.

assay_system: CRTH2 (Homo sapiens, UniProt Q9Y5Y4)
Sequence (Q9Y5Y4 1-395): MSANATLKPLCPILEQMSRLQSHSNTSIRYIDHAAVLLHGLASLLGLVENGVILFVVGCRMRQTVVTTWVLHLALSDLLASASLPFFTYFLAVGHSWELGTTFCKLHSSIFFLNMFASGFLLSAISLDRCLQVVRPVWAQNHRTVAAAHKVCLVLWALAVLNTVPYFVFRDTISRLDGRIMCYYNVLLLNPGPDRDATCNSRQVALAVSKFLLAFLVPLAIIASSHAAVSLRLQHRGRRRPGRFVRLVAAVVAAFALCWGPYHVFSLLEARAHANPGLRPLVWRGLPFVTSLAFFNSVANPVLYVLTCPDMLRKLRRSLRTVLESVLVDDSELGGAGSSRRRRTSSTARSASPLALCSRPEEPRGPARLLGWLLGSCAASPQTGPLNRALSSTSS
test_summary: cell-based
experimental_endpoint: EC50 (nM)

INSERT INTO results (record_smiles, experimental_endpoint, quantity_unit, value) VALUES
  ('CCCCC[C@H](O)/C=C/[C@H]1C(=O)C[C@H](O)[C@@H]1C/C=C\CCCC(=O)O', 'EC50', 'nM', 19.3);

* * *

assay_system: FFAR1 (Homo sapiens, UniProt O14842)
Sequence (O14842 whole entry): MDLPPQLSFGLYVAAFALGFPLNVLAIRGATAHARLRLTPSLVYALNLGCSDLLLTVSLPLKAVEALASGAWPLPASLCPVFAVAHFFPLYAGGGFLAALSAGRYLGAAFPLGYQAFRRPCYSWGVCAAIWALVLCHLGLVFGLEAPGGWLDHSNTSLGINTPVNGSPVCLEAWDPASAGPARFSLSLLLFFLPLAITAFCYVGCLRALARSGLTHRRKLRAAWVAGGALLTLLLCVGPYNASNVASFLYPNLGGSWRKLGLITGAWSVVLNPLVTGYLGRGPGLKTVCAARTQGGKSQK
test_summary: cell-based
experimental_endpoint: EC50 (nM)

INSERT INTO measurements (record_smiles, experimental_endpoint, value) VALUES
  ('O=C(O)CCc1ccc(NCc2cccc(Oc3ccccc3)c2)cc1', 'EC50', 288);

* * *

assay_system: PTHR2 (Homo sapiens, UniProt P49190)
Sequence (P49190 whole entry): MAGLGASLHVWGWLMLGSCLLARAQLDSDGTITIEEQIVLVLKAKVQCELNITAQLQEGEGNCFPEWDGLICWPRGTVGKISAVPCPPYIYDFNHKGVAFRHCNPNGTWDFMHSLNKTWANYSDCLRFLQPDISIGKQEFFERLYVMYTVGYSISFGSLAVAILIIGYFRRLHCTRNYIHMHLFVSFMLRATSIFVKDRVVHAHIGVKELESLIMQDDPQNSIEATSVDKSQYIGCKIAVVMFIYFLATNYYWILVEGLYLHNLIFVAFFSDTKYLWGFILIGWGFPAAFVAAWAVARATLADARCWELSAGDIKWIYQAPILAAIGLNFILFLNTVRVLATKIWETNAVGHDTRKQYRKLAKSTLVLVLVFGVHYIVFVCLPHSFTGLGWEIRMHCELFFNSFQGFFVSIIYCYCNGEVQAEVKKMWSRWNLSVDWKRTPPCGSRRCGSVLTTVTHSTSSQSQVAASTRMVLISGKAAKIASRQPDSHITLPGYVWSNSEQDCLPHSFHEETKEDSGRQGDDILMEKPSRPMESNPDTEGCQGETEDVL
test_summary: cell-based
experimental_endpoint: EC50 (nM)

INSERT INTO assay_data (record_smiles, experimental_endpoint, value) VALUES
  ('CCCCC#CCCCCCCCC(=O)OC', 'EC50', 0.849);

* * *

assay_system: GPR109B (Homo sapiens)
Construct: gene HCAR3
Sequence (P49019 whole entry): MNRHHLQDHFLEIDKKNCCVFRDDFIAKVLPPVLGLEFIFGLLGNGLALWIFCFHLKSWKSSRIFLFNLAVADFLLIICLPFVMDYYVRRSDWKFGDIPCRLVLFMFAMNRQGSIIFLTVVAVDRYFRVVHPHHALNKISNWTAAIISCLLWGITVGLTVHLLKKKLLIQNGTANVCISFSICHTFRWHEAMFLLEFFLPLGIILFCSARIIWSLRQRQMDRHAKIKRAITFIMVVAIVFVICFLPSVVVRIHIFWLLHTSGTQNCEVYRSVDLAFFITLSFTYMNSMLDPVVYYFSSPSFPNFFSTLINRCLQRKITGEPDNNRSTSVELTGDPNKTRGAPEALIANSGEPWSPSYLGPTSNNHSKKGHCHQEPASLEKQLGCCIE
test_summary: PathHunter beta-arrestin recruitment assay, dose-response of the known agonist
Assay type: cell-based
From the text: PathHunter beta-arrestin recruitment assay, dose-response of the known agonist on GPR109B | This previously unknown GPR109B agonist elicited a similar GPCR response to 3-hydroxyoctanoic acid
experimental_endpoint: EC50

INSERT INTO results (compound, value) VALUES
  ('CCCCCC(O)CC(=O)O (stereo not shown) [3-hydroxyoctanoic acid]', '304 µM');

* * *

assay_system: urotensin 2 receptor (UTR2) (Homo sapiens)
Sequence (Q9UKP6 whole entry): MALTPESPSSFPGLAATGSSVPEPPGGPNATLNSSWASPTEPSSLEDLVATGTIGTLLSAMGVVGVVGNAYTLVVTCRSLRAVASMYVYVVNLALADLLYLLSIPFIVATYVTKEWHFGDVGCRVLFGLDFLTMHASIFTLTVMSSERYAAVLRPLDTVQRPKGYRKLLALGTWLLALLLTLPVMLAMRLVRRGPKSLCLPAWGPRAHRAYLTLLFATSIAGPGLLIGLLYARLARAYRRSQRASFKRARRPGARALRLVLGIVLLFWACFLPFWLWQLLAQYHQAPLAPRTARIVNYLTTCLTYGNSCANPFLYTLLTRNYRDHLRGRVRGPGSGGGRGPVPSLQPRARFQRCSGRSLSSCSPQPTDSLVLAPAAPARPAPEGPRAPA
test_summary: PathHunter beta-arrestin recruitment assay in a recombinant reporter cell line, dose-response
pEC50: −log10 of the molar value.
experimental_endpoint: pEC50

INSERT INTO measurements (compound, assay_system, experimental_endpoint, value) VALUES
  ('CCC(C)CCCCCCCCCCC(=O)O (stereo not shown)', 'urotensin 2 receptor (UTR2) (Homo sapiens)', 'pEC50', 3.72);

* * *

assay_system: HRH4 (Homo sapiens, UniProt Q9H3N8)
Sequence (Q9H3N8 whole entry): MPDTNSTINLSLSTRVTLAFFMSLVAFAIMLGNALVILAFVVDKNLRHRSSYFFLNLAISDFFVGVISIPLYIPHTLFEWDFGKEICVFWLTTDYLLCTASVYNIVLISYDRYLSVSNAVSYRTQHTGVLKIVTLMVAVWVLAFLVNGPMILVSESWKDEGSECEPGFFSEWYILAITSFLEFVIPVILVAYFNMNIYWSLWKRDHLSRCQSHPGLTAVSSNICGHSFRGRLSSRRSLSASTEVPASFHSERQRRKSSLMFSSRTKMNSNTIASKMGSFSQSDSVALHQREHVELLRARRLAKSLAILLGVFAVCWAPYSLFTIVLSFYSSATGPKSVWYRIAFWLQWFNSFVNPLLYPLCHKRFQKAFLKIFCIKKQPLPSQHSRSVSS
test_summary: PathHunter beta-arrestin recruitment assay in a recombinant reporter cell line, commercial standard, dose-response
pEC50: −log10 of the molar value.
experimental_endpoint: pEC50

INSERT INTO assay_data (molecule, experimental_endpoint, value) VALUES
  ('NCCCCCN [cadaverine]', 'pEC50', 5.96);

* * *

assay_system: neuromedin receptor 1 (NMU1R) (Homo sapiens, UniProt Q9HB89)
Sequence (Q9HB89 1-426): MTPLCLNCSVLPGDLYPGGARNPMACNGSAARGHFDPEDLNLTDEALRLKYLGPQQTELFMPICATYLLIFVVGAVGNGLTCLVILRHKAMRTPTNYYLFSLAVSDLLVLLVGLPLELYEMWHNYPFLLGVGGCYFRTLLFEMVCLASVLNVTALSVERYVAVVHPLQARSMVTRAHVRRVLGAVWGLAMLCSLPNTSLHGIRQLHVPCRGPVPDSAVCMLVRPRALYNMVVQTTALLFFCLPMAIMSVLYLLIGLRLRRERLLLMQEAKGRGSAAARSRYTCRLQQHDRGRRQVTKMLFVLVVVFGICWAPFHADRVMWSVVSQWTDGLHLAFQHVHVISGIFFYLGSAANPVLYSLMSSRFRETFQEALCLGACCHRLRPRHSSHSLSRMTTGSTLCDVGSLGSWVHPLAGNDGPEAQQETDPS
test_summary: PathHunter beta-arrestin recruitment assay in a recombinant reporter cell line, dose-response
experimental_endpoint: EC50 (µM)

INSERT INTO measurements (compound, experimental_endpoint, value) VALUES
  ('CCC(C)CCCCCCCCCCC(=O)O (stereo not shown)', 'EC50', 125);
